# Test system: Staphylococcus aureus
# experimentNotes: Antimicrobial activity against methicillin-sensitive Staphylococcus aureus isolate 2
# Type: functional
Measured MIC by item
Please give a number only; it is taken to be in µg/mL.

[[record]]
molecule = "CC12CC34C=CC(=O)C(C)(CCC(=O)Nc5c(O)ccc(C(=O)O)c5O)C3C(O1)[C@@H](Br)C2C4 (some centres undefined)"
parametermeasured = "MIC"
endpointvalue = 8

[[record]]
molecule = "CC1(CCC(=O)Nc2c(O)ccc(C(=O)O)c2O)C(=O)C=CC23CC4CC(OC4(c4ccccc4)C2)C31 (centres undefined)"
parametermeasured = "MIC"
endpointvalue = 8

[[record]]
molecule = "C[C@@H]1C2OC3(C)CC4(C=CC(=O)C(C)(CCC(=O)Nc5c(O)ccc(C(=O)O)c5O)C24)CC13 (some centres undefined)"
parametermeasured = "MIC"
endpointvalue = 1

[[record]]
molecule = "C[C@@H]1C2OC3(C)CC4(CC13)C(c1ccccc1)=CC(=O)C(C)(CCC(=O)Nc1c(O)ccc(C(=O)O)c1O)C24 (some centres undefined)"
parametermeasured = "MIC"
endpointvalue = 0.5

[[record]]
molecule = "CC1=CC(=O)C(C)(CCC(=O)Nc2c(O)ccc(C(=O)O)c2O)C2C3CC4CC12CC4(C)O3 (centres undefined)"
parametermeasured = "MIC"
endpointvalue = 4

[[record]]
molecule = "CC12CC34C=CC(=O)C(C)(CCC(=O)Nc5c(O)ccc(C(=O)O)c5O)C3C(O1)[C@@H](Cl)C2C4 (some centres undefined)"
parametermeasured = "MIC"
endpointvalue = 8

[[record]]
molecule = "CC12C[C@@]34C=CC(=O)[C@@](C)(CCC(=O)Nc5c(O)ccc(C(=O)O)c5O)C3[C@H](CC1C4)O2 (some centres undefined)"
parametermeasured = "MIC"
endpointvalue = 2


Please find the next molecule below.
Input line: Give reported MIC value for CC12CC34CC1CC(O2)C3C(C)(CCC(=O)Nc1c(O)ccc(C(=O)O)c1O)C(=O)C=C4c1ccccc1 (centres undefined)
Output line: 0.5

* * *

# Tested on: Staphylococcus aureus
# experimentNotes: Antimicrobial activity against methicillin-resistant Staphylococcus aureus isolate 6
# Assay type: functional
Consider the following molecules and their measured MIC readings.
Number in µg/mL, nothing else.

Input line: Identify measured MIC associated with C[C@@H]1C2OC3(C)CC4(C=CC(=O)C(C)(CCC(=O)Nc5c(O)ccc(C(=O)O)c5O)C24)CC13 (some centres undefined)
Output line: 0.5

Input line: Report measured MIC; entry is CC1=CC(=O)C(C)(CCC(=O)Nc2c(O)ccc(C(=O)O)c2O)C2C3CC4CC12CC4(C)O3 (centres undefined)
Output line: 0.5

Input line: Provide one value: measured MIC of CC12C[C@@]34C=CC(=O)[C@@](C)(CCC(=O)Nc5c(O)ccc(C(=O)O)c5O)C3[C@H](CC1C4)O2 (some centres undefined) [PLATENSIMYCIN]
Output line: 0.25

* * *

# Tested on: Enterococcus faecium
# experimentNotes: Antimicrobial activity against vancomycin-resistant Enterococcus faecium isolate 15
# Format: functional
Consider the following compounds and their measured MIC readings.
A number alone suffices; assume µg/mL.

[[record]]
compound = "C[C@@H]1C2OC3(C)CC4(C=CC(=O)C(C)(CCC(=O)Nc5c(O)ccc(C(=O)O)c5O)C24)CC13 (stereo not given in full)"
endpointvalue = 1


Lab note: next compound to report on.
Input line: Check the records and state MIC for CC12CC34C=CC(=O)C(C)(CCC(=O)Nc5c(O)ccc(C(=O)O)c5O)C3C(O1)[C@@H](Br)C2C4 (stereo not given in full)
Output line: 16
